Below, each of the binders is paired with its reported Anti-CD28 Fab (SEQ ID NOs: 202, 203) signal value.
Test system: Anti-CD28 Fab (SEQ ID NOs: 202, 203)
Sequence (VH, as listed by the source, chain 1 of 2): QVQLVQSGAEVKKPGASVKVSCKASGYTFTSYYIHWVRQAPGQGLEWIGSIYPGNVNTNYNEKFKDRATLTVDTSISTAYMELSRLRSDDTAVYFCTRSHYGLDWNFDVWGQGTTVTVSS
Sequence (VL, as listed by the source, chain 2 of 2): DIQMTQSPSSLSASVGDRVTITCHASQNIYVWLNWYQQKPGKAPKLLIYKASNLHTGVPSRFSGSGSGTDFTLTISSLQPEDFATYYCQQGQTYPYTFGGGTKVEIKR
Method: phage binding ELISA on captured Fab;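 also: clonal phage supernatants added briefly to wells pre-incubated with CD28 antigen or with blocking buffer only, then washed, bound phage read by ELISA using HRP-coupled anti-M13 antibody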
Give only the figure.

Binder: YCAGHSAQYMWKCL [Phage-793]
Numeric readout: 0.92

Binder: YCEGHDIRYMMKCL [Phage-785]
Numeric readout: 0.95

Binder: YCSGHVPEYMEKCL [Phage-787]
Numeric readout: 0.94

Binder: YCDGHIKEYMSKCL [Phage-799]
Numeric readout: 0.91

Binder: YCAGHIPQYLNKCL [Phage-873]
Numeric readout: 0.49

For the binder YCEGHSVEYILKCL [Phage-757] , report Anti-CD28 Fab (SEQ ID NOs: 202, 203) signal.
1.04

Give the measured Anti-CD28 Fab (SEQ ID NOs: 202, 203) signal for YCAGHSVQYMYKCL [Phage-832]
0.74

For the binder YCDGHTPQFRAKCL [Phage-859] , report Anti-CD28 Fab (SEQ ID NOs: 202, 203) signal.
0.59

Return Anti-CD28 Fab (SEQ ID NOs: 202, 203) signal for the following binder: YCDGHSFEYMAKCL [Phage-794]
0.92

Consider the binder YCDGHDPQYIRKCI [Phage-817] . State its measured Anti-CD28 Fab (SEQ ID NOs: 202, 203) signal.
0.83
